molecular target: Mitogen-activated protein kinase 14 (Homo sapiens, UniProt Q16539); experiment: Inhibition of p38alpha MAP kinase
Sequence (Q16539 whole entry): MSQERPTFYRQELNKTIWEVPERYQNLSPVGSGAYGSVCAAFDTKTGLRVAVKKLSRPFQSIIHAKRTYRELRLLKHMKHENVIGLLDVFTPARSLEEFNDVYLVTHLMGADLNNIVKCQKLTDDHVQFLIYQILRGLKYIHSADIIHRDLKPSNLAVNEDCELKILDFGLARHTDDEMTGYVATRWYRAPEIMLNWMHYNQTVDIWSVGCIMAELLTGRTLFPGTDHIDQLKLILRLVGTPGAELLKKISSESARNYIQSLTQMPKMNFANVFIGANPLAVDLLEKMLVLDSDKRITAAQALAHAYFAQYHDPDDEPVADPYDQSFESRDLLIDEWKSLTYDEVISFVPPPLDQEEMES
pIC50: −log10 of the molar value.
PROPERTY LABEL: pIC50

[P] Fc1ccc(C2=C(c3ccncc3)CCC2)cc1
[Q] Fc1ccc(-c2nc[nH]c2-c2ccncc2)cc1
[R] Fc1ccc(-c2[nH]ccc2-c2ccncc2)cc1
[S] Fc1ccc(-c2occc2-c2ccncc2)cc1
Q) sort_by: pIC50; order: ascending; scope: items listed above Answer format: the labels, ordered as requested.
A) P, S, R, Q
